Origin of the recorded values: patent US20240309087A1

experimentalSystem: T1, recombinant cynomolgus monkey CD112R antigen (cynomolgus monkey, UniProt A0A2K5WVV8 1-322)
T1 construct: bought
T1 sequence: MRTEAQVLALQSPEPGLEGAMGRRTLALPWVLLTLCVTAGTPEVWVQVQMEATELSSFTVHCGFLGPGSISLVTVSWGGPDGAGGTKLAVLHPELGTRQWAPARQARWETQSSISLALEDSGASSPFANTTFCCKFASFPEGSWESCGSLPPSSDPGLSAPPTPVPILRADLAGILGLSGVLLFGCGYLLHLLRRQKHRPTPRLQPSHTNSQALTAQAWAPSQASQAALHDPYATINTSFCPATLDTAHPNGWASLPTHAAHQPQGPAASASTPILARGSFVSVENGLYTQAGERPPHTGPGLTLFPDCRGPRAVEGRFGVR
testDetails: ELISA, coated cynomolgus monkey CD112R; EC50 Ref/EC50 antibody
We begin with a simple list: items and their reported Relative activity (%).

binder	uom	Relative activity (%)
Chi-45 (antibody, V domains shown, chimeric) VH: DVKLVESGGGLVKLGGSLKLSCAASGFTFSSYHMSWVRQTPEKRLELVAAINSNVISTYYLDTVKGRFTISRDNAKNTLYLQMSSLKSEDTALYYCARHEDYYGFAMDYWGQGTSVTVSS VL: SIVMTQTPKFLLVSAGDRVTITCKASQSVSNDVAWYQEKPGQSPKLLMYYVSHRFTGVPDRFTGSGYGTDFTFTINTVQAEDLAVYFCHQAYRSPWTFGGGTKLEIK	%	118
Chi-63 (antibody, V domains shown, chimeric) VH: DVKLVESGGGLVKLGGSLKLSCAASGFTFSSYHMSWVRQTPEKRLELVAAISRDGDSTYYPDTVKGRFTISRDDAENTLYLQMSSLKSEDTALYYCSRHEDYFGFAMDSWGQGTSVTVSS VL: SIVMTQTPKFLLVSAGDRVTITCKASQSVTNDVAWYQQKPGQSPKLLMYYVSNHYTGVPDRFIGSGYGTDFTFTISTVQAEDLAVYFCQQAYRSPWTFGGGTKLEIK	%	96.1
Chi-69 (antibody, V domains shown, chimeric) VH: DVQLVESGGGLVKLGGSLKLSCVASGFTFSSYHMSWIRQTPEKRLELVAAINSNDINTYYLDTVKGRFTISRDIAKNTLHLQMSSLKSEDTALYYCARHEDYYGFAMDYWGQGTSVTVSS VL: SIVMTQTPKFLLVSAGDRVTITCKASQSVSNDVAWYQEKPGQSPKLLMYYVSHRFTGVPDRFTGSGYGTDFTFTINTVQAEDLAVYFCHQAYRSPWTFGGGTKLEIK	%	88.4
Chi-62 (antibody, V domains shown, chimeric) VH: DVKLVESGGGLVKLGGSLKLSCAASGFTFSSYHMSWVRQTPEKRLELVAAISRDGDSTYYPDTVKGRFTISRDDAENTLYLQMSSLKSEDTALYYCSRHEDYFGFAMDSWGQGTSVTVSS VL: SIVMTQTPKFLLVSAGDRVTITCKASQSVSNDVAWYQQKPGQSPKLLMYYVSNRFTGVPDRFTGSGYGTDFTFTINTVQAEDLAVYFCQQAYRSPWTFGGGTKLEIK	%	113
Chi-70 (antibody, V domains shown, chimeric) VH: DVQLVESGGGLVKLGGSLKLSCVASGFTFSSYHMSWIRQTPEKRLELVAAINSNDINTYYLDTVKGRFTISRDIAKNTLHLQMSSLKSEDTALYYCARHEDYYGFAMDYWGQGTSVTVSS VL: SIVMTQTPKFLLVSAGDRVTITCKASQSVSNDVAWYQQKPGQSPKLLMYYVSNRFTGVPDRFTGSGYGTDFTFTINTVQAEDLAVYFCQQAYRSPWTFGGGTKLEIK	%	109
